- system-name: MLE dsRBD1+2 K4A/S5A (Drosophila, UniProt P24785 1-264, K4A;S5A)
- Sequence (P24785 1-264 K4A/S5A): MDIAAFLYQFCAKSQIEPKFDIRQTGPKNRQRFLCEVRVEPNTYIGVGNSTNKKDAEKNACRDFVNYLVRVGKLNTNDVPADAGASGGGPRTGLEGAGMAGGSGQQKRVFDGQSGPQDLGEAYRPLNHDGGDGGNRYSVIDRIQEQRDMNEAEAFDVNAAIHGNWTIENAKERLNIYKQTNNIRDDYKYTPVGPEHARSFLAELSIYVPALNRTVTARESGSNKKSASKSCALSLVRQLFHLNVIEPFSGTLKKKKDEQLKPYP
- method-description: fluorescence polarization; FP: 80 nM 3'-FAM RNA stock mixed 1:1 with protein, buffer D (composition not in material), 15 min, 20 C; EMSA: 1200 nM RNA stock mixed 1:1 with protein, buffer
- condition-label: protein: recombinant; tags: SUMO tag removed by ULP1; label: 3'-FAM; hairpin, 13 nt loop (C135-C147)
pKd: −log10 of the molar value.

binder: R2H1 55mer (FAM) (structured_RNA) RNA: GCUUUAGAGAUCGUUUCGAAUCACAUUGAUAAUCGUUCGAAACGUUCUCCGAAGC
pKd: 5.35
